Values were extracted from ChEMBL document CHEMBL4177737.

Test: Drug level in Balb/c mouse at 100 mg/kg, po BID measured at 7.5 hrs on day 1
Type: ADME, organism-based
Conditions: in vivo, read-out: Drug uptake
VALUE_KIND: concentration at 7.5 h (nM)
Answers are plain numbers, in nM.

Item `CC(C)(O)[C@H](F)CNC(=O)C[C@@H]1CCc2cc(C(O)(C(F)(F)F)C(F)(F)F)ccc2N1S(=O)(=O)c1ccc(F)cc1` has what recorded concentration at 7.5 h?
2460

###

Assay: Drug level in Balb/c mouse at 30 mg/kg, po BID measured at 23.5 hrs on day 1
Assay type: ADME, organism-based
Settings: in vivo, read-out: Drug uptake
VALUE_KIND: concentration at 23.5 h (nM)
One number for each entry, in nM.

Item `CC(C)(O)[C@H](F)CNC(=O)C[C@@H]1CCc2cc(C(O)(C(F)(F)F)C(F)(F)F)ccc2N1S(=O)(=O)c1ccc(F)cc1` has what recorded concentration at 23.5 h?
5
